The values you see were collected from ChEMBL document CHEMBL3608284.

Target: Translocator protein (Homo sapiens, UniProt P30536)
Sequence (P30536 whole entry): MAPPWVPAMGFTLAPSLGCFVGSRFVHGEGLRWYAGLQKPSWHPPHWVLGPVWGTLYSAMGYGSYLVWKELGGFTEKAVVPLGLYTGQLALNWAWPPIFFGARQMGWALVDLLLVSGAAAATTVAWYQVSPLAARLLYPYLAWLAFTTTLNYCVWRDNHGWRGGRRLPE
propertyLabel: Ki
Don't forget the unit after the number, please.

INPUT: Given the entry COc1cc2c3c(c1OC)-c1cc4c(cc1CC3N(C)CC2c1ccccc1)OCO4 (stereo unspecified) , report its measured Ki.
OUTPUT: 2.9 µM

----------
As shown below, each of these compounds has a reported inhibition value.
Target: 5-hydroxytryptamine receptor 1E (Homo sapiens)
Assay: Displacement of [3H]5HT from 5HT1E receptor (unknown origin) at 10 uM
Answer with a number only, understood to be in %.

COc1cc2c3c(c1OCc1ccc(Br)cc1)-c1cc4c(cc1CC3N(C)CC2c1ccccc1)OCO4 (stereo unspecified)
-0.1
COc1cc2c3c(c1OC)-c1cc4c(cc1CC3N(C)CC2c1ccccc1)OCO4 (stereo unspecified)
10.1
CCCCCCOc1c(OC)cc2c3c1-c1cc4c(cc1CC3N(C)CC2c1ccccc1)OCO4 (stereo unspecified)
2.4

INPUT: Given the entry C=CCOc1c(OC)cc2c3c1-c1cc4c(cc1CC3N(C)CC2c1ccccc1)OCO4 (stereo unspecified) , report its measured inhibition.
OUTPUT: 3.3

INPUT: Next: COc1cc2c3c(c1OCC1CC1)-c1cc4c(cc1CC3N(C)CC2c1ccccc1)OCO4 (stereo unspecified)
OUTPUT: 27.4

INPUT: Next: CCCCOc1c(OC)cc2c3c1-c1cc4c(cc1CC3N(C)CC2c1ccccc1)OCO4 (stereo unspecified)
OUTPUT: 7.3
